Listing of entries alongside the reported Kd.
target: GDP-bound KRAS wild-type protein (Homo sapiens, UniProt P01116); assay: Binding to KRAS by surface plasmon resonance (SPR), Single Cycle Kinetics; conditions: SPR Single Cycle Kinetics, GDP-bound KRAS wild-type protein, 1:1 binding model; read-out: KRAS KD
Sequence (P01116 whole entry): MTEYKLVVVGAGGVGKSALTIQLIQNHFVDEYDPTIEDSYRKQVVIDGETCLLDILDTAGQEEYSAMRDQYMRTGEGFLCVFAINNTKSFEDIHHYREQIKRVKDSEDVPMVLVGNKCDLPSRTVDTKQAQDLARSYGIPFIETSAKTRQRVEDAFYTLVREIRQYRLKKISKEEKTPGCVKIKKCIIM
*1 amine or outer side, *2 acyl side, *3 side chain or, on linkers, in order; H or OH if unused. Where a SMILES comes first, the peptide text is derived from it. Bridges are numbered along the chain shown (N, C = ends). [ ]: non-standard residue; d: D form. The star is where a group is joined. hPhe(3-Cl-4-CF3) = N[C@@H](CCc1ccc(C(F)(F)F)c(Cl)c1)C(=O)O; X35 = COCCN([C@@H](Cc1ccc(C)cc1)C(=O)[*:2])[*:1]; NMeGly(cPent) = CN[C@H](C(=O)O)C1CCCC1; NMeD = CN[C@@H](CC(=O)O)C(=O)O; NMeL = CN[C@@H](CC(C)C)C(=O)O; Morpholide = C1CN(*)CCO1; Ac5c = NC1(C(=O)O)CCCC1; Sar = CNCC(=O)O
METRIC_NAME: Kd (nM)

>>> value("CC[C@H](C)[C@@H]1NC(=O)[C@H](CC(C)C)N(C)C(=O)C[C@@H](C(=O)N2CCOCC2)N(C)C(=O)[C@H](C2CCCC2)N(C)C(=O)C2(CCCCC2)NC(=O)[C@@H]2CCCN2C(=O)[C@H](CCc2cc(F)c(C(F)(F)F)c(F)c2)NC(=O)CN(C)C(=O)[C@H](Cc2ccc(C(F)(F)F)cc2)N2CCCC[C@@H](C2=O)N(C)C(=O)CN(C)C1=O [PP0561]")
0.31
>>> value("CC[C@H](C)[C@@H]1NC(=O)[C@H](CC(C)C)N(C)C(=O)C[C@@H](C(=O)N2CCOCC2)N(C)C(=O)[C@H](C2CCCC2)N(C)C(=O)C2(CCCC2)NC(=O)[C@@H]2CCCN2C(=O)[C@H](CCc2ccc(C(F)(F)F)c(Cl)c2)NC(=O)CN(C)C(=O)[C@H](Cc2ccc(C)cc2)N(CCOC)C(=O)CN(C)C(=O)CN(C)C1=O [PP0104] ([NMeL]I[Sar][Sar][X35][Sar][hPhe(3-Cl-4-CF3)]P[Ac5c][NMeGly(cPent)][NMeD]-Morpholide; lactam N-11)")
0.25
>>> value("CCCC[C@H]1C(=O)N[C@@H]([C@@H](C)CC)C(=O)N(C)CC(=O)N(C)[C@H]2C/C=C\\CCN(C2=O)[C@@H](Cc2ccc(C(F)(F)F)cc2)C(=O)N(C)CC(=O)N[C@@H](CCc2cc(F)c(C(F)(F)F)c(F)c2)C(=O)N2C[C@H](OCC)C[C@H]2C(=O)NC2(CC(C)(C)C2)C(=O)N(C)[C@@H](C2CCCC2)C(=O)N(C)[C@H](C(=O)N(C)CC)CC(=O)N1C [PP2806]")
0.12

* * *

target: GDP-bound KRAS wild-type protein (Homo sapiens, UniProt P01116); assay: Binding to KRAS by surface plasmon resonance (SPR), Single Cycle Kinetics; conditions: SPR Single Cycle Kinetics, GDP-bound KRAS wild-type protein, 1:1 binding model; read-out: KRAS KD
pKd: −log10 of the molar value. Where a SMILES comes first, the peptide text is derived from it. Bridges are numbered along the chain shown (N, C = ends). [ ]: non-standard residue; d: D form. The star is where a group is joined. hPhe(3-Cl-4-CF3) = N[C@@H](CCc1ccc(C(F)(F)F)c(Cl)c1)C(=O)O; NPrPhe(4-CF3) = CCCN[C@@H](Cc1ccc(C(F)(F)F)cc1)C(=O)O; NEtPhe(4-Me) = CCN[C@@H](Cc1ccc(C)cc1)C(=O)O; NMeGly(cPent) = CN[C@H](C(=O)O)C1CCCC1; Pro(4,4-F2) = O=C(O)[C@@H]1CC(F)(F)CN1; NMeD = CN[C@@H](CC(=O)O)C(=O)O; NMeL = CN[C@@H](CC(C)C)C(=O)O; Morpholide = C1CN(*)CCO1; NMeA = CN[C@@H](C)C(=O)O; Ac5c = NC1(C(=O)O)CCCC1; Aze = O=C(O)[C@@H]1CCN1; Ac4c = NC1(C(=O)O)CCC1; NPrGly = CCCNCC(=O)O; Sar = CNCC(=O)O
Listing of entries alongside the reported pKd.
METRIC_NAME: pKd

>>> value("CC[C@H](C)[C@@H]1NC(=O)[C@H](C)N(C)C(=O)C[C@@H](C(=O)N2CCOCC2)N(C)C(=O)[C@H](C2CCCC2)N(C)C(=O)C2(CCCC2)NC(=O)[C@@H]2CCCN2C(=O)[C@H](CCc2ccc(C(F)(F)F)c(Cl)c2)NC(=O)CN(C)C(=O)[C@H](Cc2ccc(C)cc2)N(CC)C(=O)[C@@H]2CCN2C(=O)[C@H](C)N(C)C1=O [PP0007] ([NMeA]I[NMeA][Aze][NEtPhe(4-Me)][Sar][hPhe(3-Cl-4-CF3)]P[Ac5c][NMeGly(cPent)][NMeD]-Morpholide; lactam N-11)")
10.13
>>> value("CCC[C@H]1C(=O)N[C@@H]([C@@H](C)CC)C(=O)N(C)CC(=O)N(C)[C@H]2C/C=C\\CCN(C2=O)[C@@H](Cc2ccc(C)cc2)C(=O)N(C)CC(=O)N[C@@H](CCc2cc(F)c(C(F)(F)F)c(F)c2)C(=O)N2C[C@H](OCC)C[C@H]2C(=O)NC2(CC(C)(C)C2)C(=O)N(C)[C@@H](CC2CCC2)C(=O)N(C)[C@H](C(=O)N(C)C)CC(=O)N1C")
9.07
>>> value("CCCN1C(=O)[C@@H]2CCN2C(=O)CN(C)C(=O)[C@H]([C@@H](C)CC)NC(=O)[C@H](CC(C)C)N(C)C(=O)C[C@@H](C(=O)N(C)C)NC(=O)[C@H](C2CCCC2)N(C)C(=O)C2(CCC2)NC(=O)[C@@H]2CC(F)(F)CN2C(=O)[C@H](CCc2ccc(C(F)(F)F)c(Cl)c2)NC(=O)CN(C)C(=O)[C@@H]1Cc1ccc(C(F)(F)F)cc1 [PP0388] ([NMeL]I[Sar][Aze][NPrPhe(4-CF3)][Sar][hPhe(3-Cl-4-CF3)][Pro(4,4-F2)][Ac4c][NMeGly(cPent)]D-NMe2; lactam N-11)")
9.11
>>> value("CCO[C@@H]1C[C@H]2C(=O)NC3(CCCC3)C(=O)N(C)[C@@H](C3CCCC3)C(=O)N(C)[C@H](C(=O)N(C)C)CC(=O)N(C)[C@@H](CC(C)C)C(=O)N[C@@H]([C@@H](C)CC)C(=O)N(C)CC(=O)N(C)[C@H]3CCCCCN(C3=O)[C@@H](Cc3ccc(C(F)(F)F)cc3)C(=O)N(C)CC(=O)N[C@@H](CCc3cc(F)c(C(F)(F)F)c(F)c3)C(=O)N2C1")
9.10
>>> value("CCCN1CC(=O)NC2(CCCC2)C(=O)N(C)[C@@H](C2CCCC2)C(=O)N(C)[C@H](C(=O)N2CCOCC2)CC(=O)N(C)[C@@H](CC(C)C)C(=O)N[C@@H]([C@@H](C)CC)C(=O)N(C)CC(=O)N(C)CC(=O)N(CCC)[C@@H](Cc2ccc(C(F)(F)F)cc2)C(=O)N(C)CC(=O)N[C@@H](CCc2ccc(C(F)(F)F)c(Cl)c2)C1=O [PP0267] ([NMeL]I[Sar][Sar][NPrPhe(4-CF3)][Sar][hPhe(3-Cl-4-CF3)][NPrGly][Ac5c][NMeGly(cPent)][NMeD]-Morpholide; lactam N-11)")
9.06

* * *

target: GDP-bound KRAS wild-type protein (Homo sapiens); assay: Binding to KRAS by surface plasmon resonance (SPR), Single Cycle Kinetics; conditions: SPR Single Cycle Kinetics, GDP-bound KRAS wild-type protein, 1:1 binding model; read-out: KRAS KD
pKd: −log10 of the molar value. *1 amine or outer side, *2 acyl side, *3 side chain or, on linkers, in order; H or OH if unused. Where a SMILES comes first, the peptide text is derived from it. Bridges are numbered along the chain shown (N, C = ends). [ ]: non-standard residue; d: D form. The star is where a group is joined. hPhe(3-Cl-4-CF3) = N[C@@H](CCc1ccc(C(F)(F)F)c(Cl)c1)C(=O)O; X30 = C=CCCN([C@@H](Cc1ccc(C)cc1)C(=O)[*:2])[*:1]; NMeGly(cPent) = CN[C@H](C(=O)O)C1CCCC1; NMeAllylGly = C=CC[C@H](NC)C(=O)O; NMeF = CN[C@@H](Cc1ccccc1)C(=O)O; NMeD = CN[C@@H](CC(=O)O)C(=O)O; NMeL = CN[C@@H](CC(C)C)C(=O)O; Morpholide = C1CN(*)CCO1; NMeA = CN[C@@H](C)C(=O)O; Ac5c = NC1(C(=O)O)CCCC1; Aze = O=C(O)[C@@H]1CCN1; Sar = CNCC(=O)O
METRIC_NAME: pKd

>>> value("C=CCCN1C(=O)[C@H](CC=C)N(C)C(=O)CN(C)C(=O)[C@H]([C@@H](C)CC)NC(=O)[C@H](CC(C)C)N(C)C(=O)C[C@@H](C(=O)N2CCOCC2)N(C)C(=O)[C@H](C2CCCC2)N(C)C(=O)C2(CCCC2)NC(=O)[C@@H]2CCCN2C(=O)[C@H](CCc2ccc(C(F)(F)F)c(Cl)c2)NC(=O)CN(C)C(=O)[C@@H]1Cc1ccc(C)cc1 [PP0140] ([NMeL]I[Sar][NMeAllylGly][X30][Sar][hPhe(3-Cl-4-CF3)]P[Ac5c][NMeGly(cPent)][NMeD]-Morpholide; lactam N-11)")
6.10
>>> value("CC[C@H](C)[C@@H]1NC(=O)[C@H](CC(C)C)N(C)C(=O)C[C@@H](C(=O)N2CCOCC2)N(C)C(=O)[C@H](C2CCCC2)N(C)C(=O)C2(CCCC2)NC(=O)[C@@H]2CCCN2C(=O)[C@H](CCc2ccc(C(F)(F)F)c(Cl)c2)NC(=O)CN(C)C(=O)[C@H](Cc2ccccc2)N(C)C(=O)[C@@H]2CCN2C(=O)[C@H](C)N(C)C1=O [PP0011] ([NMeL]I[NMeA][Aze][NMeF][Sar][hPhe(3-Cl-4-CF3)]P[Ac5c][NMeGly(cPent)][NMeD]-Morpholide; lactam N-11)")
9.52
>>> value("CCC[C@H]1C(=O)N[C@@H]([C@@H](C)CC)C(=O)N(C)CC(=O)N(C)[C@H]2C/C=C\\CCN(C2=O)[C@@H](Cc2ccc(C)cc2)C(=O)N(C)CC(=O)N[C@@H](CCc2cc(Cl)c3sccc3c2)C(=O)N2C[C@H](OCC)C[C@H]2C(=O)NC2(CC(C)(C)C2)C(=O)N(C)[C@@H](C(CC)CC)C(=O)N(C)[C@H](C(=O)N(C)C)CC(=O)N1C")
9.38
